From: ChEMBL document CHEMBL3991601

# key: entry, value: Kd
- assayed system: Isoleucine--tRNA ligase, mitochondrial (Homo sapiens); note: in the data inactive means no Kd found up to 30 µM
- Sequence (Q9NSE4 whole entry): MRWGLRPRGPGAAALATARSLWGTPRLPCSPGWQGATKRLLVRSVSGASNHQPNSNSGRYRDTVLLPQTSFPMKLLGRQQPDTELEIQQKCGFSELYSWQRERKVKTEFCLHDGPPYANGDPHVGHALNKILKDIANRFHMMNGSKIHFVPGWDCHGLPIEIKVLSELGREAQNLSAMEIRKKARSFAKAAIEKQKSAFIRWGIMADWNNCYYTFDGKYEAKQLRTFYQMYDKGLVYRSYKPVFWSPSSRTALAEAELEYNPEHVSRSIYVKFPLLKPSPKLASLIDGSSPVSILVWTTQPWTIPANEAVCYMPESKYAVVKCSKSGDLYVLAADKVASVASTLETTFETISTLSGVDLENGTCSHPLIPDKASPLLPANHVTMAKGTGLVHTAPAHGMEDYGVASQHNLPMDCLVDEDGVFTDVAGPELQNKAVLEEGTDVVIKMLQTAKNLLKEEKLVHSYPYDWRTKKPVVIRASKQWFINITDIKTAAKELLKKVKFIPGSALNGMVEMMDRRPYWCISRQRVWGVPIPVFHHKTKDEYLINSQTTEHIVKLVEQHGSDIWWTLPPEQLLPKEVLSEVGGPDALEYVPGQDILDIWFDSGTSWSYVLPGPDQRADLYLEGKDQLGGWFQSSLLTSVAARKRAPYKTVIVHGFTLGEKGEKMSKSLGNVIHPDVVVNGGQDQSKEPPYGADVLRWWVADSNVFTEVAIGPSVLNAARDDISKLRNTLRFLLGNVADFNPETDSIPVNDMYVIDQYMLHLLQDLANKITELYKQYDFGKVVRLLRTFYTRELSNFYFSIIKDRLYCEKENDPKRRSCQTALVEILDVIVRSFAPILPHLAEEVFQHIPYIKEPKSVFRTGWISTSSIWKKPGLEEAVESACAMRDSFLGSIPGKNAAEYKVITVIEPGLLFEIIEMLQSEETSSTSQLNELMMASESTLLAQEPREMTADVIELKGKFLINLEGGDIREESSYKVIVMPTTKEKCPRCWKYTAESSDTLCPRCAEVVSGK
Activity calls are given as the source filed them.

The molecule identified as Cn1c(=O)n(-c2ccc(C(C)(C)C#N)cc2)c2c3cc(-c4cnc5ccccc5c4)ccc3ncc21 registered its Kd at > 30 µM (inactive)
